Each recorded value in this set is attributed to the supplement of paper PMC10126150.

- System: ATP;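 note: ATP exposure 15 min at 22 °C before imaging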
- protocolNotes: switch fluorescence ratio, 500 uM ATP over buffer (Cy3 cluster intensity, sum of 5 cycles each) (fold (ratio)); higher = stronger signal-on switching upon ATP binding; sequences stand for … in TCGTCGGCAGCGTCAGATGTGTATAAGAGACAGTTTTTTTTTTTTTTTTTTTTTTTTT…TC
- condition: aptamer strand: ATP DNA aptamer (quencher-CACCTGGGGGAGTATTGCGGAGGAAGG + anchor), 100 nM annealed; ATP concentration: 500 uM
outcomeMeasure: switch fluorescence ratio
Numbers only.

// known answers, use as guide
{"sequenceString": "TGCGTGTTGA", "switch fluorescence ratio": 1.04}
{"sequenceString": "ATGCGAGTGG", "switch fluorescence ratio": 1.01}
{"sequenceString": "AGTAACGCTT", "switch fluorescence ratio": 1.01}
{"sequenceString": "GGGGGATGCC", "switch fluorescence ratio": 1.15}
{"sequenceString": "TGGGTAACGA", "switch fluorescence ratio": 0.962}

Hey, quick one: what's switch fluorescence ratio for each of these?
1. TTTATGCACC
2. TAGTTGTGGT
3. TAAGAGGGTG
4. CAGGCCTGAC

## Result
[1.07, 0.99, 1.11, 1.02]

Consider the following items and state reported switch fluorescence ratio for each.
1. GAGTGTGGGC
2. ATGCGGGTTT
3. GATAAGTTGG
4. AAATTCATAG

## Result
[1.01, 1.02, 0.935, 1.02]

Entry "TCTGAAAGTC" , switch fluorescence ratio reported as 0.996

---

Please respond with reported switch fluorescence ratio for every item in the list.
- Test system: ATP;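 note: ATP exposure 15 min at 22 °C before imaging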
- protocolNotes: switch fluorescence ratio, 500 uM ATP over buffer (Cy3 cluster intensity, sum of 5 cycles each) (fold (ratio)); higher = stronger signal-on switching upon ATP binding; sequences stand for … in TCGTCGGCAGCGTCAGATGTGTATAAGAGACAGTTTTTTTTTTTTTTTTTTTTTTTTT…TC
- condition: aptamer strand: ATP DNA aptamer (quencher-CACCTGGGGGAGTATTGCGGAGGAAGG + anchor), 100 nM annealed; ATP concentration: 500 uM
Numbers only.

Example entries begin here.
{"sequenceString": "GGAATAGAAA", "switch fluorescence ratio": 0.994}
{"sequenceString": "TATTTTTGCC", "switch fluorescence ratio": 1}
{"sequenceString": "ACCAATAGGA", "switch fluorescence ratio": 1.01}
{"sequenceString": "GGGGAGCGGC", "switch fluorescence ratio": 1.02}
{"sequenceString": "CATTTGTGGG", "switch fluorescence ratio": 0.993}
{"sequenceString": "TCATGTATTG", "switch fluorescence ratio": 1.01}

Give switch fluorescence ratio for all sequences that follow.
1. TTATGACCAG
2. TTTGGGGACA

## Result
[1.01, 1.01]

Provide reported switch fluorescence ratio for each item, in the same order as listed.
1. CAGGTTTGTG
2. ATGTAGGGAG
3. AAGATGGAGG
4. TGGAAAGTGG

## Result
1.01
0.998
0.973
0.982

---

- System: ATP;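 note: ATP exposure 15 min at 22 °C before imaging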
- protocolNotes: switch fluorescence ratio, 500 uM ATP over buffer (Cy3 cluster intensity, sum of 5 cycles each) (fold (ratio)); higher = stronger signal-on switching upon ATP binding; sequences stand for … in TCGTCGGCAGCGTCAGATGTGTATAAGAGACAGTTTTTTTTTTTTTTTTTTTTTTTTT…TC
- condition: aptamer strand: ATP DNA aptamer (quencher-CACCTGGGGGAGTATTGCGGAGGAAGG + anchor), 100 nM annealed; ATP concentration: 500 uM
outcomeMeasure: switch fluorescence ratio
One number for each entry.

{"sequenceString": "GACTAAAGGT", "switch fluorescence ratio": 1.01}
{"sequenceString": "ATTCTTTCTT", "switch fluorescence ratio": 1}

Parameters: items (list). Returns: switch fluorescence ratio for each item.
1. AAGGTGCCTG
2. GTTGTGAGCG

## Result
[1.02, 1.01]

Provide reported switch fluorescence ratio for each item, in the same order as listed.
1. CGGGGACTTC
2. AAAGGGGGC
3. GGTTTTTGGT
4. GTGGTTTTTT
5. TGTGGGATGG
6. CATTAGGATA

## Result
1: 1.02; 2: 0.974; 3: 1; 4: 0.996; 5: 1; 6: 1.02

Please give switch fluorescence ratio, item by item, for the list that follows.
1. TTGTGTGTCA
2. ATGTGGTAAT

## Result
[0.994, 0.984]
